assay: Growth inhibition of human MCF7 cells at 30 uM after 72 hrs by MTT assay; format: functional; conditions: MCF7, 72 h, read-out: GI
result type: inhibition of growth at 30 µM (%)
Kindly provide the numeric value in % only, without the unit symbol.

Q: Which inhibition of growth at 30 µM is reported for this molecule? CC(=O)O[C@H]1CC[C@@]2(C)C(=CC[C@@H]3[C@@H]2CC[C@]2(C)C(c4n[nH]cc4C=O)=CC[C@@H]32)C1
Result: 83.5

Q: Please report the recorded inhibition of growth at 30 µM for C[C@]12CC[C@H](O)CC1=CC[C@@H]1[C@@H]2CC[C@]2(C)C(c3nn(-c4ccc(Cl)cc4)cc3CO)=CC[C@@H]12 .
Result: 90.9

Q: Any idea what inhibition of growth at 30 µM was measured for CC(=O)O[C@H]1CC[C@@]2(C)C(=CC[C@@H]3[C@@H]2CC[C@]2(C)C(c4nn(-c5ccccc5)cc4C=O)=CC[C@@H]32)C1 ?
Result: 86.3

Q: I have this molecule here, C[C@]12CC[C@H](O)CC1=CC[C@@H]1[C@@H]2CC[C@]2(C)C(c3n[nH]cc3C=O)=CC[C@@H]12 , and I need its recorded inhibition of growth at 30 µM.
Result: 80.8

Q: Look at this molecule and give its reported inhibition of growth at 30 µM. CC(=O)O[C@H]1CC[C@@]2(C)C(=CC[C@@H]3[C@@H]2CC[C@]2(C)C(c4nn(C)cc4C=O)=CC[C@@H]32)C1
Result: 61.9

Q: Look at this molecule and give its reported inhibition of growth at 30 µM. Cc1ccc(-n2cc(C=O)c(C3=CC[C@H]4[C@@H]5CC=C6C[C@@H](O)CC[C@]6(C)[C@H]5CC[C@]34C)n2)cc1
Result: 72.6

FYI, the data here is from ChEMBL document CHEMBL3856198.
